System: HT29 colon
Assay: NCI tumour cell line growth inhibition, 48 h
Task for the reader: assign each of the following compounds its reported TGI.

Asked: Quick one: TGI for C=C(C)[C@@H]1CCC2=C[C@@H](OC2=O)[C@@H](C(=C)C)C(=O)/C=C(/C)C(=O)C1 ?
Given back: > 100 µM

Asked: Quick one: TGI for Cc1cc(C(=O)N2CCN(Cc3ccccc3)CC2)c(C)o1 ?
Given back: > 100 µM

Asked: Quick one: TGI for CCCN(CCCCN1C(=O)c2ccccc2C1=O)CC1COc2ccccc2O1 (configuration not stated) ?
Given back: > 100 µM

Asked: Quick one: TGI for CCCCCC(=O)OCC1(CO)C/C(=C\CC(C(C)C)C(C)C)C(=O)O1 (configuration not stated) ?
Given back: > 100 µM

Asked: Quick one: TGI for O=c1cc(CC(O)(C(F)(F)Cl)C(F)(F)Cl)[nH]n1-c1ccccc1 ?
Given back: > 100 µM

Asked: Quick one: TGI for COc1cc2cc[n+]3c4cc(OC)c(OC)cc4c(C)cc3c2cc1OC ?
Given back: > 100 µM

Asked: Quick one: TGI for CC(=O)[O-].CC(=O)[O-].[NH2-].[Pt+2].c1ccncc1 ?
Given back: > 100 µM

Asked: Quick one: TGI for CC(C)c1cccc(C(C)C)c1NC(=O)C(=O)C(C(=O)c1ccc2ccccc2c1)C1OC(=O)c2ccccc21 (configuration not stated) ?
Given back: > 100 µM

Asked: Quick one: TGI for Nc1ccccc1NC(=O)c1ccc(CN2CCC/C(=C\c3cccc(Cl)c3)C2=O)cc1 ?
Given back: 1.89 µM

Asked: Quick one: TGI for Oc1c(-c2ccccc2)sc2ccccc12 ?
Given back: 81.6 µM

Asked: Quick one: TGI for O=C1c2ccccc2C(=O)N1CCCCCCNOCCCN1C(=O)c2ccccc2C1=O ?
Given back: > 100 µM

Asked: Quick one: TGI for CN(C)CCCNc1nccc(-c2c(-c3ccc(F)cc3)nn3cc(C(F)(F)F)ccc23)n1 ?
Given back: > 23.9 µM

Asked: Quick one: TGI for NCC(NC(=O)OCc1ccccc1)C(=O)O (configuration not stated) ?
Given back: > 50 µM

Asked: Quick one: TGI for O=C(O)C#CCO ?
Given back: > 100 µM

Asked: Quick one: TGI for COC(=O)C(Cc1ccccc1I)C1=CCC2(CC1)OCCO2 (configuration not stated) ?
Given back: > 100 µM

Asked: Quick one: TGI for O=C1/C(=C\c2coc3ccccc3c2=O)c2ccccc2N1c1c(Cl)cccc1Cl ?
Given back: > 100 µM

Asked: Quick one: TGI for COc1cc2c(cc1OC)C1(c3ccccc3)CN(C2)Cc2cc(OC)c(OC)cc21 ?
Given back: > 100 µM

Asked: Quick one: TGI for COc1cc(C(N)=O)cc(NC(=O)/C=C/c2ccccc2)c1OC ?
Given back: > 100 µM

Asked: Quick one: TGI for COC(=O)N/N=C/c1oc(-c2ccccc2)c(-c2ccccc2)c1[N+](=O)[O-] ?
Given back: > 100 µM

Asked: Quick one: TGI for O=c1[nH]c(SCc2c(Cl)c(Cl)c(Cl)c(Cl)c2Cl)nc(=S)[nH]1 ?
Given back: > 63 µM

Asked: Quick one: TGI for Cc1cc2c(cc1C)[n+](=O)c(N1CCN(c3ccc([N+](=O)[O-])cc3)CC1)c(C#N)n2[O-] ?
Given back: > 100 µM

Asked: Quick one: TGI for CC[CH2][Sn]([Cl])([Cl])[CH2]CC ?
Given back: 30.9 µM

###

Tested on: OVCAR-8 ovarian
Experiment: NCI tumour cell line growth inhibition, 48 h; in the data active means GI50 below about 0.43 µM; inactive means the rest
Give one outcome, nothing more. List: active, inactive

Asked: Fill in: this test's call for COc1cccc(C2C3=C(COC3=O)N(CCO)c3cc4c(cc32)OCCO4)c1 (stereo not given) is ___
Given back: active

Asked: Fill in: this test's call for N#Cc1c(-c2ccccc2)cc(-c2ccccc2)n(CCCCC(=O)NO)c1=O is ___
Given back: inactive

Asked: Fill in: this test's call for COC(=O)[C@H](CC(C)C)NC(=O)NC(=O)NC(=O)CI is ___
Given back: inactive

Asked: Fill in: this test's call for O=C1/C(=C\c2coc3ccccc3c2=O)c2ccccc2N1c1c(Cl)cccc1Cl is ___
Given back: inactive

Asked: Fill in: this test's call for CC1OC(OC2CC(O)C3(CO)C4C(O)CC5(C)C(C6=CC(=O)OC6)CCC5(O)C4CCC3(O)C2)C(O)C(O)C1O (stereo not given) is ___
Given back: active

Asked: Fill in: this test's call for C#COc1cccc(Nc2ncnc3ncc(NC(=O)CCl)cc23)c1 is ___
Given back: inactive

Asked: Fill in: this test's call for Nc1ccccc1NC(=O)c1ccc(CN2CCC/C(=C\c3cccc(Cl)c3)C2=O)cc1 is ___
Given back: active

Asked: Fill in: this test's call for N#Cc1cccc(NC(=O)c2oc3ccccc3c2-c2cnn(-c3ccccc3)c2)c1 is ___
Given back: inactive

Asked: Fill in: this test's call for O=C1c2ccccc2-c2c1c1ccccc1c(=O)n2CCCN1CCN(CCCn2c3c(c4ccccc4c2=O)C(=O)c2ccccc2-3)CC1 is ___
Given back: inactive

Asked: Fill in: this test's call for C#CCNC(=O)CC[C@]1(C)[C@H]2CC[C@@H]3[C@@H]([C@@](C)(O)CCC=C(C)C)CC[C@@]3(C)[C@]2(C)CC[C@H]1C(=C)C is ___
Given back: inactive

###

Task for the reader: assign each of the following compounds its reported TGI.
Tested on: SK-MEL-2 melanoma
Assay: NCI tumour cell line growth inhibition, 48 h

Asked: Quick one: TGI for CC(=O)[O-].CC(=O)[O-].[NH2-].[Pt+2].c1ccncc1 ?
Given back: > 100 µM

Asked: Quick one: TGI for C[C@H]1CC(=O)C2=CCCC3(SCCCS3)[C@@H]2[C@H]1CO ?
Given back: > 100 µM

Asked: Quick one: TGI for Nc1ccccc1NC(=O)c1ccc(CN2CCC/C(=C\c3cccc(Cl)c3)C2=O)cc1 ?
Given back: 18.2 µM

Asked: Quick one: TGI for CC(=O)OCC12C(OC(C)=O)C[C@@H](C)C3(CC(c4ccoc4)OC3=O)C1CCC(O)C21CO1 (stereo not given in full) ?
Given back: > 100 µM

Asked: Quick one: TGI for C=C1CCC2C3(C)COC(c4ccc(SC)cc4)OC3CCC2(C)C1C/C=C1/C(=O)OCC1O (stereo not given) ?
Given back: 15.5 µM

Asked: Quick one: TGI for C[C@@H](NC(=O)OC1C=CC2(CC1)C(=O)N(C)c1ccccc12)c1cccc2ccccc12 (stereo not given in full) ?
Given back: > 25 µM

Asked: Quick one: TGI for O=C1Nc2ccccc2Nc2nc3cccccc-3c21 ?
Given back: > 100 µM

Asked: Quick one: TGI for CCOC(=O)C1=C(C)NC2SC(=O)/C(=C\c3ccccc3)N2C1c1ccccc1 (stereo not given) ?
Given back: > 100 µM

Asked: Quick one: TGI for N#CN1CCC[C@H]1C(=O)N1CCc2c(-c3[nH]nc4ncccc34)cccc21 ?
Given back: 18.2 µM

Asked: Quick one: TGI for COC(=O)c1ccc([N+](=O)[O-])c(O)c1 ?
Given back: > 100 µM

###

Test system: SK-MEL-28 melanoma
Experiment: NCI tumour cell line growth inhibition, 48 h
measured_property: GI50

Asked: Recall the recorded GI50 for N#Cc1c(NC(=O)CN2CCOCC2)sc2c1CCCC2 with SK-MEL-28 melanoma and state it.
Given back: > 25 µM

Asked: Recall the recorded GI50 for COc1ccc(C2=C(c3cc(OC)c(OC)c(OC)c3)C(=O)CC2)cc1 with SK-MEL-28 melanoma and state it.
Given back: 0.489 µM

Asked: Recall the recorded GI50 for CN(C)CCCNc1nccc(-c2c(-c3ccc(F)cc3)nn3cc(C(F)(F)F)ccc23)n1 with SK-MEL-28 melanoma and state it.
Given back: 4.29 µM

Asked: Recall the recorded GI50 for CC(=O)OCC1OC(OC2=C(CC=C(Cl)Cl)C(=O)c3ccccc3C2=O)C(OC(C)=O)C(OC(C)=O)C1OC(C)=O (stereo unspecified) with SK-MEL-28 melanoma and state it.
Given back: 3.93 µM

Asked: Recall the recorded GI50 for CC1=C(/C=C/C(C)=C/C=C/C(C)=C/C(=O)Nc2ccc(O)cc2)C(C)(C)CCC1 with SK-MEL-28 melanoma and state it.
Given back: 2.87 µM

Asked: Recall the recorded GI50 for C=C(C)[C@@H]1CCC2=C[C@@H](OC2=O)[C@@H](C(=C)C)C(=O)/C=C(/C)C(=O)C1 with SK-MEL-28 melanoma and state it.
Given back: 34.8 µM

###

Task for the reader: assign each of the following compounds its reported TGI.
System: MOLT-4 leukemia
Assay: NCI tumour cell line growth inhibition, 48 h

Asked: Quick one: TGI for NCC(NC(=O)OCc1ccccc1)C(=O)O (stereo not given) ?
Given back: > 50 µM

Asked: Quick one: TGI for CC(C)(C)OC(=O)NC(Cc1cnc[nH]1)C(=O)N1CCCC1C(N)=O (stereo not given) ?
Given back: > 100 µM

Asked: Quick one: TGI for COP1(=O)NCc2ncccc2O1 (stereo not given) ?
Given back: > 100 µM

Asked: Quick one: TGI for CO/N=C1/c2sccc2[C@H](NC(=O)C(F)(F)F)[C@@H]1O ?
Given back: > 100 µM

Asked: Quick one: TGI for CC1C/C(=N\N(C)C)C(C#N)(C#N)C1(C#N)C#N (stereo not given) ?
Given back: 6.9 µM

Asked: Quick one: TGI for CC(=O)OC[C@]12CC[C@@H]([C@@H](C)C(N)=O)[C@@H]1[C@H]1CC[C@@H]3[C@@]4(C)CC[C@H](OC(C)=O)C(C)(C)[C@@H]4CC[C@@]3(C)[C@]1(C)CC2 ?
Given back: 15.2 µM

Asked: Quick one: TGI for O=C1c2nn(-c3ccccc3)nc2C(c2ccccc2)N1c1ccccc1 (stereo not given) ?
Given back: > 100 µM

Asked: Quick one: TGI for Cc1cc(-c2nc(-c3ccc(OC(F)(F)F)cc3)no2)nn1Cc1ccnc(N2CCN(C3CC3)CC2)c1 ?
Given back: 84.8 µM

Asked: Quick one: TGI for CC1(C)CCc2cc3c(-c4ccccc4)cc(=O)oc3cc2O1 ?
Given back: > 100 µM

Asked: Quick one: TGI for Clc1ccc(-c2nn3ncccc3c2-c2ccnc(Nc3ccccc3)n2)cc1 ?
Given back: > 25 µM

Asked: Quick one: TGI for O=C(N/N=C1/C(=O)c2c3ccccc3cc3cccc1c23)c1cccc(Cl)c1 ?
Given back: > 100 µM

Asked: Quick one: TGI for CC(=O)Nc1cc2c(cc1O)CC[C@@H]1[C@@H]2CC[C@]2(C)[C@@H](O)CC[C@@H]12 ?
Given back: > 100 µM

Asked: Quick one: TGI for CC(=O)OC1CC2(c3ccccc3)C(=O)c3ccccc3N2O1 (stereo not given) ?
Given back: > 100 µM

Asked: Quick one: TGI for COc1ccc2c(c1)nc1n2C(c2c(F)cccc2Cl)SC1 (stereo not given) ?
Given back: > 41.4 µM

Asked: Quick one: TGI for O=C(O)C1CCCCN1C(=O)c1ccccc1 (stereo not given) ?
Given back: > 100 µM

Asked: Quick one: TGI for COc1ccc([N-]/C(=N\n2c(=O)c(C)nn(C)c2=S)N(c2ccc(OC)cc2)c2nn3c(=O)c(C)n[n+](C)c3s2)cc1 ?
Given back: > 100 µM

Asked: Quick one: TGI for OCC1OC(n2nc(-c3ccccc3)nc2-c2cnccn2)C(O)C1O (stereo not given) ?
Given back: > 100 µM

Asked: Quick one: TGI for C=C1C(=O)O[C@@H]2C[C@@H]1CC[C@@]1(C)O[C@@H]1CC[C@@]1(C)O[C@@H]1CC[C@@]2(C)O ?
Given back: 32.3 µM

Asked: Quick one: TGI for Cc1ccc(S(=O)(=O)Oc2ccc(OS(=O)(=O)c3ccc(C)cc3)c3c2C(=O)c2ccccc2C3=O)cc1 ?
Given back: > 100 µM

Asked: Quick one: TGI for CCCC(=O)OC[n+]1cccc(-c2c(COC(=O)NC(C)C)c(COC(=O)NC(C)C)c3n2CCC3)c1 ?
Given back: > 83.3 µM
